The origin of these recorded values is patent US20150274820A1.

Experimental system: T1, recombinant human VEGF121 (human, UniProt P15692 27-147)
T1 construct: mature; Isoform VEGF121 of the entry; also called hVEGF121
T1 sequence (looked up): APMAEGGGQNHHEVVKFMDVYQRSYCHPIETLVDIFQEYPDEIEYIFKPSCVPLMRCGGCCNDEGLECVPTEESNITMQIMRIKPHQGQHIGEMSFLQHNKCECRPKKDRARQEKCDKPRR
Assay notes: Biacore SPR, VEGF immobilized, pH 5
Property name: koff (s⁻¹)
Write down the numeric answer in s⁻¹ and omit the unit.

What does the data say about its koff? Entry: 511-max (scFv, also called ESBA802) scFv: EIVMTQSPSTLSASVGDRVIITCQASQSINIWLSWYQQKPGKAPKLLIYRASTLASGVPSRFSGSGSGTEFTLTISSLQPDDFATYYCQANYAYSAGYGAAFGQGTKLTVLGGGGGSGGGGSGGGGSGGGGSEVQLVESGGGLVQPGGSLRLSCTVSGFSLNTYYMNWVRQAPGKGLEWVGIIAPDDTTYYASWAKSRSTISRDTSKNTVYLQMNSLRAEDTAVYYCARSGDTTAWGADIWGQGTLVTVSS
9.97e-05

Same question, 509-maxII (scFv, VH tied by name; also called Protein Nr) scFv: EIVMTQSPSTLSASVGDRVIITCQASQNIRIWLSWYQQKPGKAPKLLIYKASTLESGVPSRFSGSGSGTEFTLTISSLQPDDFATYYCQNNAHYSTNGGTFGQGTKLTVLGGGGGSGGGGSGGGGSGGGGSEVQLVESGGGLVQPGGSLRLSCTASGFSLSSYYMSWVRQAPGKGLEWVGILDYVGDTDYASWAKGRFTISKDASKNTVYLQMNSLRAEDTAVYYCARTDDSRGWGLNIWGQGTLVTVSS this time
0.00123

Moving on to the next binder: 509-min (scFv, VL and VH tied by name; also called Protein Nr; 854) scFv: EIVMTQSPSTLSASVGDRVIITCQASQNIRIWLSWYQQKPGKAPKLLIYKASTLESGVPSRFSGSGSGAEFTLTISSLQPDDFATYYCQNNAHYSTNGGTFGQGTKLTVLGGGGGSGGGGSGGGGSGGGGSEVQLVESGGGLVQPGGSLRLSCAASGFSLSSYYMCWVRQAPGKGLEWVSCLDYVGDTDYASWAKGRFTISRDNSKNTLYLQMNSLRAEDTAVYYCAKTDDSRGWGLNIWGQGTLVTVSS
0.000453
